Let's look at some sequences and their measured PET hydrolysis.
ASSAY PROCEDURE: PET hydrolysis, aromatic products released after 48 h (umol product/mg enzyme); higher = more PET depolymerization activity
CONDITION SET: substrate: cryPow; 60 °C; pH 8.5

Some entries whose results are on file:
| BIOPOLYMER SEQUENCE | ASSAY VALUE |
| --- | --- |
| ATTSYQRGPNPTEQSVRAANGPFAYSQFAIPDAEATGFGEGTIYYPNNTSVGTFGGVVIAPGFNADQNSTVWLGKRLASHGFVAVTITTHELNDQPYERGKQILAALDYLTGQSPAFVRSRLDPARLAAVGHSMGGGGTLFAAAQRPSLKAIVPLAPWALAKNWSNVQVPTMILSGAQDASAPPAEHAEKFYASLTSAPEKAYAKLDVNHVRFAWEHPLIGKLVVSWLKRFVDEDTRYTQFLCPTATGAVLLEYRATCPLG [DP026] | < 3 |
| ANPYERGPDPTLASVEATSGTFAYASLSVSSGNGFGGGTIYYPTSTTDGTFAGIVTCPGFTNSGSSMAWFGKVLASQGFVTLVMNPKSNLDFPDARATQMLAALDWLTNSSSVKTRIDATRLGVLGQSMGGGATLKASKTRPSLKASFATAPYNSDKDWSTNTVPQFLFGMQNDTTAAVTNHALKFYNSLPATTPKIYAELRGAGHSTATSPNTSIRRYAVSFMKRNLDNDTRYSQFLCPGPTITSSSPLSAFMSNCLF [DP080] | < 3 |

Next, consider the following sequence.
For reference, reported PET hydrolysis for GTTASATTVSGTQAAAAQEYRRGPDPTAQSVEAATGPFAIQQTSVPAGNGFGGGTIYYPTDTSQGTFGAIAISPGWTEDQSAIAWLGPKLASNGFVVMTINNNNAFLDFPDARGTQLLAALDSLTGQSPVAGRIDKNRLAVAGHSMGGGGALRAAATRPEIQAAIPLTPWHLNQDWSSVRVPTLIVGGETDIIASVGAHSEPFYESLTNAPERAYLEMEGQGHFVTNSANPTVGRYVLSWLKRYVDNDTRYEQFLCPAPAPSSVISEYRDSCPGS [DP018] stands at < 3

###

Examples of sequences with documented purified protein yield per well follow.
ASSAY PROCEDURE: purified protein yield per well (BCA); higher = higher soluble expression

Study these solved cases before continuing.
| BIOPOLYMER SEQUENCE | ASSAY VALUE |
| --- | --- |
| ADNPYQRGPDPTRTSVAAVNGPFANTSVSVPTGYGFNGGRIYYPTDTSQGTFGAIAISPGYTALFSAELAWMGPWLASHGFVVIGIETNSRNDFDTARGTQLLAALDYLTQQSPVRDRVDPNRLAVSGHSMGGGGALSAAIRRSSLKAVVGIAPYSPSSNLANDRVPTMIFSGQADTVVTPSYATGLYNSLPATTESVYLEVAGADHGFMVGRSNPVMIRTMLPFVKMFIDNDTRYSQFLCPLLDSSGVVTYRSTCPLLPPAPTTPPPTGTPTPTPSSNPTTPPTTPPSTPTA [ESM061] | 408 µg |
| MRDGPKFGTATVYYPENAQAPYASLLIVTGFVHPESAMKAWGPFLASHGIVTLTIGTNKLKDDPFKRRDALLDAVRSLKAEHLRKDSPLWHKLALDRIGVAGWSMGGGGAQLAAAADPSLRAVIGFCPWLPKANFEHPVPSLIIAGTLDSIANVFLNARAHYAGISETTPKLIIEIPYGGHWIANDPANANGAIGQIGLSWLKVYLEGDTRYRQFLLTPPISGGYFRHNLE [TEP077] | < 25 µg |
| GAAGNPYERGPDPTESSIEAPRGHYAVSETSVSALGVTGFGGGTIYYPTSTADGTFGAVAIAPGYTSLQSSIAWLGPRLASQGFVVITIDTRTTLDQPAGRGAQLLAALDYLTRRSSVRNRIDSGRLGVMGHSMGGGGSLEAAKGRPSLQAAIPLTGWNLDKTWPEIRVPTLLVGADGDTIAPVATHSQPFYQSLPSTLDRAYLELNNATHFTPNRPDTTIAKYSVSWLKRFIDNDTRYEQFLCPLPRPSRTIEEYRGNCPHTS [TEP007] | < 25 µg |
| MASVAAQYGPFATAQITVPPGNGFNGGFIYYPTDTSHTYGAVAIVPGYTALFANEEAWMGPRLASFGFVVIGVETNNRNDYDTARGTQLLAALDYLTNSSAVRDRVDRNRLSVIGHSMGGGGALYAATQRPSLKAAIGLAPFKPSGNLASDNVPTMIIGGINDTTVTPSYLDGLYPTLPASTPGAYIQLANADHLYFTRPNDIELRSQIEWLKIFVDNDTRYTQFLCPSIKDTTGIVRSSVKCSTIPSGGSTPPSSPSVPPSSPPSGPQRILGSQSGRCVDVPNATHDNGTRVQLYDCNGQANQQWTYTSSKQLTVYGNVCLDAAGSGNGSAVQIYSCNGQPNQQWNVNANGTITGVQSGRCLDVWGTGNGQQFQLWDCNGQANQRFGLS [ESM074] | < 25 µg |
| QAIGPDPTAASLAADGPFAVSTQTASRATGFAGGTIYVPNTAGRYALVAFCPGFTNSQSAVAALGRRLATHGFVVVTMNTNSIFDFPASRATQLIAALNTVAAISTGPVVGKVDSARRMVAGYSMGGGGALIAARGNPSLRGAVALAPWSDSDKNFSTTTVPTAIVAGSADTTASPTDHATVFYNSMPTTTKKLLAIISGATHSFPTTSTPNQPASGYQIAWSKRFADQDVRYGPFLVTDSRLSSFASTGPF [ESM142] | < 25 µg |
| CADRPPVQDEDPAPTAASLAAPLGPYRTSTATVPRGLTEAFGGGTIYYPSGRPRGDTFGGVIIAPGRNGNQGGMAWYGPLLASRGFVVFAIDTLHLKDRPAARAHELEAAMTYLTVRSPVATLVDADRLAVMGHSFGGGAALETAADRPTLRAAIPLMPYDKGREFSNVRVPTLVVAAQNDKIAPVSRHARRFYRSIPASSGKGYLEIAGTTHSSPKKPNTTLAAYVIAWLKRYVDGDERYERFLCPGPIDDPSVALYRNPCS [TEP060] | < 25 µg |

Entry under test: MSGFGGGTIYYPSGTTGTMAAIVVIPGYVSSQSSIEWWGPRLASNGFVVMTIDTNATTDQPPARARQINAALDYLIAQNRASGSPVNGMIDTSRLGVVGWSMGGGGTLRVASEGRIKAAIPLAPWDTTTFRNVKAPTLIFACESDTIAPVRNHASPFYNQVPTSIPKAFVQLNRGNHYCANGGNAFNADLSRLGVSWMKRFLDNDRRFSQFLCGPNHTSDRDISEYRGNCPY [TEP104] . Its purified protein yield per well was < 25 µg

purified protein yield per well recorded for this sequence, VENGPAPTLASVQADGPYAVSTQSVSGTGFGGGTVYSPNTAGKYAVVAVCPGFTATQSSIAAISRRLATHGFVVVTINTKSTYDFPPSRANQILAALRTVTALTTGPVAGKMDISRQGVAGWSMGGGGAMLAAGMTPGLKGGVAFAPWAQSSNVSSSAVPMSYLAGSADGVAPPSMSTSFYNATPGTTRKMLGVIRGADHNFPKTASQPASYTQVAWMKRFLDSDTRYSQFLNGDSRFSTFRSTGPF [ESM088] , is < 25 µg

For AETSYENGPDPTSSSIEAVKGPFEVSTQTVSSYSVRDFGGGTIYYPASSVEGGYGAVAISPGYTARKSSIAWLGSRLASQGFVVFTIDTKTTSDRPASRGDQLLASLDYLTENSRIKDQVDPNRLAVMGHSMGGGGVFEAAKDRPELQGAIAMTPWNTNKTFSEVSTPTLIFGAQDDTVAPVSRHSIPLYSGLPSTTPRTYLELRGASHFAPNRSNTTIAAQSIAWLKAFLDEDRRYDQFLCPGPTTGIDLSDVRTSCPF [DP036] the sequence record lists purified protein yield per well as < 25 µg

Looking up ADNPYQRGPDPTVASVAATNGPFATAQLNVPSGNGFNGGTIYYPTDTSLGTWGAVAIVPGYTARFANEEAWMGPRLASFGFVVIGVETNSTTDWDTARGTQLLAALDYLTQKSSVRDRVDASRLAVIGHSMGGGGVVYAASQRPSLKAAIGLAPYAPSGNLSNVKVPMLIQGGQNDTVVTPSYLDGLYPTLPSSTPGAYVQYSGADHLFWTKANNIELRTQIPWLKIFLDNDTRYTQFMCPTLKDTASVAKYSAKCSLIPSAGSTTAPTTQPATSAPATTSPTTQPPSQPG [TEP083] , I see its purified protein yield per well listed as 356 µg

###

ASSAY PROCEDURE: PET hydrolysis, aromatic products released after 48 h (umol product/mg enzyme); higher = more PET depolymerization activity
CONDITION SET: substrate: aFilm; 60 °C; pH 6.5
The entries below are paired with their reported PET hydrolysis.

| BIOPOLYMER SEQUENCE | PET hydrolysis |
| --- | --- |
| GQAPTTAAQVRASAFAKGPDPTEQTIKAQRGPFQIKQLSVAAQSGRGFNRGTIYYPTDTGQGTYGAIAVIPGFLEPEFITSWYGPTLASYGFVVMTLEPFAITDFPDPRSNQLLAAVDWLAADSPVKAQVDPNRLAVMGHSMGGGGALLAASKRPSLKAAVPLAPWNLYADFAGVTVPTLVIGADNDFIAPVGMHADPMYASIKASPNEGYLKLKNADHFTVNSYSATLTKFTVSWMKRYVDEDTRYTQFLCPAPQPDPSFASFQMTCPS [TEP173] | < 3 |
| ADNPYERGPAPTEASVEAPRGPYAVSETTVSPLAVTGFGGGTVYYPTSTADGTFGAIAVSPGYTGTQSSIAWLGPRLASQGFVVFTIDTLTTLDQPDSRGRQLLAALDYLTQKSSVRGRIDSTRLGVMGHSMGGGGSLEAAKSRPSLQAAIPLTPWNLDKTWPEVATPTLIFGADGDTIAPVATHAEPFYTSLPASLDRAYLELNGATHFTPNTSNTTIAKYSIAWLKRFIDDDTRYEQFLCPLPRPGLTIEEYRGNCPHTS [TEP117] | < 3 |

Now examine the next entry.
// recorded PET hydrolysis for MSNPYQRGPNPTRSALTADGPFSVATYTVSRLSVSGFGGGVIYYPTGTSLTFGGIAMSPGYTADASSLAWLGRRLASHGFVVLVINTNSRFDGPDSRASQLSAALNYLRTSSPSAVRARLDANRLAVAGHSMGGGGTLRIAEQNPSLKAAVPLTPWHTDKTFNTSVPVLIVGAEADTVAPVSQHAIPFYQNLPSTTPKVYVELCNASHIAPNSNNAAISVYTISWMKLWVDNDTRYRQFLCNVNDPALCDFRTNNRHCQLEHHHHHH [LCC-ICCG] : 820

Every entry's value here was drawn from the supplement of paper PMC12455559.
